meta.source: patent EP4741383A1

- measured target: HePTP (Homo sapiens, UniProt P35236)
- Construct: made in house; host or cells: E. coli
- Sequence (P35236 whole entry, species assumed): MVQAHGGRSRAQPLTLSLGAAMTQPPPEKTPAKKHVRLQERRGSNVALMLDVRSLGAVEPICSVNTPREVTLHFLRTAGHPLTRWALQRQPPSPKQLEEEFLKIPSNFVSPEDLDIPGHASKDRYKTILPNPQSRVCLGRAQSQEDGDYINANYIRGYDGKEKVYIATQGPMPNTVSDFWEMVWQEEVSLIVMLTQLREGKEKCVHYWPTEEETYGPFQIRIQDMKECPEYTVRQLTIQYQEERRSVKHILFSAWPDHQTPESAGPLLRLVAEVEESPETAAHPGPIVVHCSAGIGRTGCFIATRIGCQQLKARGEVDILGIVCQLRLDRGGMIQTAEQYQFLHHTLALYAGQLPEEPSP
- experiment summary: Tyrosine phosphatase selectivity (pNPP substrate), HePTP
- Assay type: biochemical
- study conditions: selectivity ratio HePTP over SHP2
Give measured IC50PTP/IC50SHP2 HePTP for each item. Keep answers brief.

Guide cases for IC50PTP/IC50SHP2 HePTP, answers given:
For record `O=C(Nc1ccc(-c2oc3cc(F)c(-c4nnn[nH]4)cc3c2C2CCC2)cc1)C(=O)Nc1ccc(N2CCC3(CCOC3)CC2)cc1` the listed IC50PTP/IC50SHP2 HePTP is 703.9

// field: IC50PTP/IC50SHP2 HePTP; key: `Cn1cc(-c2ccc(NC(=O)C(=O)Nc3ccc(-c4cc5cc(F)c(-c6noc(=O)[nH]6)cc5n4C4CCC4)cc3)cc2)cn1` ; value = 9.4

Lab note: O=C(Nc1ccc(-c2cc3cc(F)c(-c4nnn[nH]4)cc3n2C2CCC2)cc1)C(=O)Nc1ccc(N2CC3COCC3C2)cc1 (stereo not shown) gave IC50PTP/IC50SHP2 HePTP of 14.7

More entries:
// IC50PTP/IC50SHP2 HePTP value for `O=C(Nc1ccc(-c2cc3cc(F)c(-c4nnn[nH]4)cc3n2C2CCC2)cc1)C(=O)Nc1ccc(N2CCOCC2)cc1` : 12.6

###

Please go through the items and note down their pIC50.
- measured target: SHP2 enzyme (catalytic domain, amino acid sequence 224-528) (Homo sapiens, UniProt Q06124)
- Construct: purchased GenScript
- experiment summary: SHP2 enzyme inhibition assay (DiFMUP substrate, fluorescence)
- Format: biochemical
- study conditions: SHP2 catalytic domain, DiFMUP substrate, 30 min pre-incubation; read-out: S HP2 I C50
One number for each entry, as −log10 of the molar value.

Lab note: CC1(O)CC2CN(c3ccc(NC(=O)C(=O)Nc4ccc(-c5cc6cc(F)c(-c7nnn[nH]7)cc6n5C5CCC5)cc4)cc3)CC2C1 (stereo not shown) gave pIC50 of 7.15

For every record below, what is its pIC50?
1. O=C(Nc1ccc(-c2cc3cc(F)c(-c4nnn[nH]4)cc3n2C2CCC2)cc1)C(=O)Nc1ccc(N2CCC3(CCOC3)C2)cc1 (stereo not shown)
2. O=C(Nc1ccc(-c2ccsc2)cc1)C(=O)Nc1ccc(-c2cc3cc(O)c(-c4nnn[nH]4)cc3n2C2CCC2)cc1
3. CC(C)(O)C1CCN(c2ccc(NC(=O)C(=O)Nc3ccc(-c4cc5cc(F)c(-c6nnn[nH]6)cc5n4C4CCC4)cc3)cc2)CC1

Result:
[7.39, 6.56, 7.39]

Could you report pIC50 for every entry in the following list?
1. CC1(n2c(-c3ccc(NC(=O)C(=O)Nc4ccc(N5CC6(CCC(O)CC6)C5)cc4)cc3)cc3cc(F)c(-c4nnn[nH]4)cc32)CCC1
2. CC1(O)CCC2(CCN(c3ccc(NC(=O)C(=O)Nc4ccc(-c5cc6cc(F)c(-c7nnn[nH]7)cc6n5C5CCC5)cc4)cc3)C2)C1 (stereo not shown)
3. CC(C)(O)C1CC2(CCN(c3ccc(NC(=O)C(=O)Nc4ccc(-c5cc6cc(F)c(-c7nnn[nH]7)cc6n5C5CCC5)cc4)cc3)CC2)C1
4. O=C(Nc1ccc(-c2cc3cc(F)c(-c4nnn[nH]4)cc3n2C2CCC2)cc1)C(=O)Nc1ccc(N2CCC3(CCOCC3)CC2)cc1
5. O=C(Nc1ccc(-c2cc3cc(F)c(-c4nnn[nH]4)cc3n2C2CCC2)cc1)C(=O)Nc1ccc(N2CCC(C3COC3)CC2)cc1
6. CC1(O)CCC2(CC1)CN(c1ccc(NC(=O)C(=O)Nc3ccc(-c4cc5cc(F)c(-c6nnn[nH]6)cc5n4C4(C)CCC4)cc3)cc1)C2
7. O=C(Nc1ccc(-c2ccsc2)cc1)C(=O)Nc1ccc(-c2cc3cc(Cl)c(-c4nnn[nH]4)cc3n2C2CCC2)cc1

Result:
1. 7.52
2. 7.25
3. 7.08
4. 7.40
5. 7.57
6. 7.22
7. 6.98

pIC50 for `O=C(Nc1ccc(-c2ccsc2)cc1)C(=O)Nc1ccc(-c2cc3cc(F)c(-c4nnn[nH]4)c(F)c3n2C2CCC2)cc1` is 7.16

###

Consider the following compounds; for each one, report its pIC50.
- measured target: UniProt Q9NP77
- Sequence (Q9NP77 1-194): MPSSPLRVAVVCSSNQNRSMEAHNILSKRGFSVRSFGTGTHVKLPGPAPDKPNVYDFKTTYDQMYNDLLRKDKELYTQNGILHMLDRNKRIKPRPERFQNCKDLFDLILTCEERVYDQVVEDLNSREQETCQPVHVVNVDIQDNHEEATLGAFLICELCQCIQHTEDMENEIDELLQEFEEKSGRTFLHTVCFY
pIC50: −log10 of the molar value.

Memo: `O=C(Nc1ccc(-c2ccsc2)cc1)C(=O)Nc1ccc(-c2cc3cc(F)c(-c4nnn[nH]4)nc3n2C2CCC2)cc1` , reported pIC50: > 5.52

Please state, for each entry, its recorded pIC50.
1. O=C(Nc1ccc(-c2ccsc2)cc1)C(=O)Nc1ccc(-c2cc3cc(F)c(-c4nnn[nH]4)cc3n2C2CCC2)cc1
2. O=C(Nc1ccc(-c2ccsc2)cc1)C(=O)Nc1ccc(-c2oc3cc(F)c(-c4nnn[nH]4)cc3c2C2CCC2)cc1
3. O=C(Nc1ccc(-c2oc3cc(F)c(-c4nnn[nH]4)cc3c2C2CCC2)cc1)C(=O)Nc1ccc(N2CCC3(CCOC3)CC2)cc1

Result:
1: > 5.52; 2: > 5.52; 3: < 4.00

###

I'd appreciate it if you could supply pIC50 values for the items below.
- measured target: SHP2 enzyme (catalytic domain, amino acid sequence 224-528) (Homo sapiens)
- Construct: purchased GenScript
- Sequence (Q06124 224-528): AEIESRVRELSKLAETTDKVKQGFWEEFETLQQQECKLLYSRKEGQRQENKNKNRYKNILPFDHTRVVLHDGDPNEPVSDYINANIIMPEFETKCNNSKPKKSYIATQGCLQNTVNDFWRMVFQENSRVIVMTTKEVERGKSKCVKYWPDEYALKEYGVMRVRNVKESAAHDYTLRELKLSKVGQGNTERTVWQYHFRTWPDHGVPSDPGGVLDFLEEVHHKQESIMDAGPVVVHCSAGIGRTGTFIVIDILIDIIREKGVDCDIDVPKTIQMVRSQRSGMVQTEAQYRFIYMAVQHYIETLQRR
- experiment summary: SHP2 enzyme inhibition assay (DiFMUP substrate, fluorescence)
- Assay type: biochemical
- study conditions: SHP2 catalytic domain, DiFMUP substrate, 30 min pre-incubation; read-out: S HP2 I C50
Give bare numbers, as −log10 of the molar value.

# count of solved cases: 4
Recorded result, `O=C(Nc1ccc(-c2cc3cc(F)c(-c4nnn[nH]4)cc3n2C2CCC2)cc1)C(=O)Nc1ccc(N2CC3(CCOCC3)C2)cc1` , pIC50: 7.17

Field pIC50 (entry CC(O)C1CCN(c2ccc(NC(=O)C(=O)Nc3ccc(-c4cc5cc(F)c(-c6nnn[nH]6)cc5n4C4CCC4)cc3)cc2)CC1 (stereo not shown) ) reads 7.32

// pIC50 lookup, compound = CCC(O)C1CCN(c2ccc(NC(=O)C(=O)Nc3ccc(-c4cc5cc(F)c(-c6nnn[nH]6)cc5n4C4CCC4)cc3)cc2)CC1 (stereo not shown) , result: 7.06

// pIC50 value for `O=C(Nc1ccc(-c2cc3cc(F)c(-c4nnn[nH]4)cc3n2C2CCC2)cc1)C(=O)Nc1ccc(N2CCC3(CC2)COC3)cc1` : 7.42

Please supply pIC50 for each of the following items, keeping them in order.
1. O=C(Nc1ccc(-c2cc3cc(F)c(-c4nnn[nH]4)cc3n2C2CCC2)cc1)C(=O)Nc1ccc(N2CCC3(CC(O)C3)C2)cc1 (stereo not shown)
2. O=C(Nc1ccc(-c2cc3cc(F)c(-c4nnn[nH]4)cc3n2C2CC2)cc1)C(=O)Nc1ccc(N2CCC3(CCOC3)CC2)cc1
3. O=C(Nc1ccc(N2CCC3(CCOC3)CC2)cc1)C(=O)NC1CC=C(c2cc3cc(F)c(-c4nnn[nH]4)cc3n2C2CC2)CC1 (stereo not shown)

Result:
1: 6.80; 2: 7.34; 3: 7.06

Report pIC50 for each item below.
1. CC1(n2c(-c3ccc(NC(=O)C(=O)Nc4ccc(N5CC6(CCOCC6)C5)cc4)cc3)cc3cc(F)c(-c4nnn[nH]4)cc32)CCC1
2. O=C(Nc1ccc(-c2ccsc2)cc1)C(=O)Nc1ccc(-c2cc3ccc(-c4nnn[nH]4)cc3n2C2CCC2)cc1
3. CC(C)(O)C1CCN(c2ccc(NC(=O)C(=O)Nc3ccc(-c4cc5cc(F)c(-c6nnn[nH]6)cc5n4CC(F)(F)F)cc3)cc2)CC1

Result:
[7.51, 7.18, 7.37]

###

- Tested on: KYSE520
- experiment summary: CellTiter-Glo cell proliferation inhibition, KYSE520
- Type: cell-based, human
- study conditions: Homo sapiens, KYSE-520; KYSE520 cells, 120 hours, CellTiter-Glo
For each entry below, report its log10(IC50) value.
Base-10 log of IC50, unit µM.

Sample answers from the record:
So, `O=C(Nc1ccc(-c2cc3cc(F)c(-c4nnn[nH]4)cc3n2C2CCC2)cc1)C(=O)Nc1ccc(N2CCC3(CCOC3)CC2)cc1` ? Its log10(IC50) was -1.07

Reported log10(IC50) for `O=C(Nc1ccc(-c2ccsc2)cc1)C(=O)Nc1ccc(-c2cc3ccc(-c4nnn[nH]4)cc3n2C2CCC2)cc1` was 0.64

Briefly, log10(IC50) measured for `O=C(Nc1ccc(-c2cc3cc(F)c(-c4nnn[nH]4)cc3n2C2CCC2)cc1)C(=O)Nc1ccc(N2CC3(CCOCC3)C2)cc1` : -0.79

Sure, the documented log10(IC50) for `O=C(Nc1ccc(-c2cc3cc(F)c(-c4nnn[nH]4)cc3n2C2CCC2)cc1)C(=O)Nc1ccc(N2CCC3(CCC(O)CC3)CC2)cc1` is -0.78

# log10(IC50) (molecule: `O=C(Nc1ccc(-c2cc3cc(F)c(-c4nnn[nH]4)cc3n2C2CCC2)cc1)C(=O)Nc1ccc(N2CCC3(CCOCC3)CC2)cc1` ) is -1.02

Kindly note the recorded log10(IC50) for `CC1(n2c(-c3ccc(NC(=O)C(=O)Nc4ccc(N5CCC6(CCOC6)CC5)cc4)cc3)cc3cc(F)c(-c4nnn[nH]4)cc32)CC1` , which is -1.07

Parameter requested: log10(IC50). Apply to each item below.
1. O=C(Nc1ccc(-c2cc3cc(F)c(-c4nnn[nH]4)cc3n2C2CCC2)cc1)C(=O)Nc1ccc(N2CCC3(CC(O)C3)C2)cc1 (stereo not drawn)
2. O=C(Nc1ccc(-c2cc3cc(F)c(-c4nnn[nH]4)cc3n2C2CCC2)cc1)C(=O)Nc1ccc(N2CCC(CCO)CC2)cc1
3. Cn1cc(-c2ccc(NC(=O)C(=O)Nc3ccc(-c4cc5cc(F)c(-c6noc(=O)[nH]6)cc5n4C4CCC4)cc3)cc2)cn1
4. CC1(n2c(-c3ccc(NC(=O)C(=O)Nc4ccc(N5CCC6(CCC(CO)C6)CC5)cc4)cc3)cc3cc(F)c(-c4nnn[nH]4)cc32)CCC1 (stereo not drawn)
5. O=C(Nc1ccc(-c2csc(CO)c2)cc1)C(=O)Nc1ccc(-c2cc3cc(F)c(-c4nnn[nH]4)cc3n2C2CCC2)cc1
6. O=C(Nc1ccc(-c2cc3cc(F)c(-c4nnn[nH]4)cc3n2C2CCC2)cc1)C(=O)Nc1ccc(N2CCC3(COC3)C2)cc1

Result:
-1.21
-1.25
-0.61
-1.00
-1.02
-0.92
